# targetDesc: T1, Anti-CD28 Fab (SEQ ID NOs: 696, 697)
# T1 construct: Biotinylated and captured on neutravidin coated plates in the phage ELISA
# T1 sequence (VH, as listed by the source, chain 1 of 2): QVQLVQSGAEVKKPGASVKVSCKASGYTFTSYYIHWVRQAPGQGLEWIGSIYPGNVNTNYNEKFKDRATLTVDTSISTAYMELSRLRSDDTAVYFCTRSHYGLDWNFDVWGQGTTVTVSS
# T1 sequence (VL, as listed by the source, chain 2 of 2): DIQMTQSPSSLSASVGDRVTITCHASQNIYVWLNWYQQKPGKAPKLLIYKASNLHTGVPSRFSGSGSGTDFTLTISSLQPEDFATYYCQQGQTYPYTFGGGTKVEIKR
# procedureSummary: phage binding ELISA on captured anti-CD28 Fab, wells pre-incubated with CD28 antigen as competitor; anti-M13 HRP detection
Field: Phage binding ELISA, Anti-CD28 Fab signal in the presence of CD28. Provide a value for each of the binders that follow.

query: Input YCAGHVPEYMAKCL [Phage-829 (Peptide-87 library sequence, SEQ ID NO: 1145)] , output reported Phage binding ELISA, Anti-CD28 Fab signal in the presence of CD28.
result: 0.07

query: Look up and state reported Phage binding ELISA, Anti-CD28 Fab signal in the presence of CD28 for YCDGHSAEYITKCL [Phage-830 (Peptide-87 library sequence, SEQ ID NO: 1146)]
result: 0.06

query: Provide only the value of recorded Phage binding ELISA, Anti-CD28 Fab signal in the presence of CD28 for YCDGHLDEYMEKCL [Phage-836 (Peptide-87 library sequence, SEQ ID NO: 1152)]
result: 0.08

query: Report Phage binding ELISA, Anti-CD28 Fab signal in the presence of CD28, nothing else, for this binder: YCDGLASEYMSKCL [Phage-832 (Peptide-87 library sequence, SEQ ID NO: 1148)]
result: 0.05

query: In one line, give reported Phage binding ELISA, Anti-CD28 Fab signal in the presence of CD28 of the entry YCEGHSPEYMRKCL [Phage-835 (Peptide-87 library sequence, SEQ ID NO: 1151)] .
result: 0.08

query: Annotate the binder YCVGHLQEYMEKCL [Phage-839 (Peptide-87 library sequence, SEQ ID NO: 1155)] with its measured Phage binding ELISA, Anti-CD28 Fab signal in the presence of CD28.
result: 0.06

query: Write down Phage binding ELISA, Anti-CD28 Fab signal in the presence of CD28 measured for item YCEGHSPQYVQKCL [Phage-834 (Peptide-87 library sequence, SEQ ID NO: 1150)]
result: 0.06

query: Check the records and state Phage binding ELISA, Anti-CD28 Fab signal in the presence of CD28 for YCAGHLPEYMLKCL [Phage-837 (Peptide-87 library sequence, SEQ ID NO: 1153)]
result: 0.09

query: Report measured Phage binding ELISA, Anti-CD28 Fab signal in the presence of CD28; entry is YCEGHHPQYMAKCL [Phage-828 (Peptide-87 library sequence, SEQ ID NO: 1144)]
result: 0.09

query: Indicate its recorded Phage binding ELISA, Anti-CD28 Fab signal in the presence of CD28; the binder in question is YCEGHLDEYMWKCL [Phage-831 (Peptide-87 library sequence, SEQ ID NO: 1147)]
result: 0.06

query: Report Phage binding ELISA, Anti-CD28 Fab signal in the presence of CD28 for YCEGHLPIYMSKCL [Phage-838 (Peptide-87 library sequence, SEQ ID NO: 1154)]
result: 0.09

query: Determine its reported Phage binding ELISA, Anti-CD28 Fab signal in the presence of CD28: YCEGHLPAYMQKCL [Phage-827 (Peptide-87 library sequence, SEQ ID NO: 1143)]
result: 0.07

query: State, in one line, measured Phage binding ELISA, Anti-CD28 Fab signal in the presence of CD28 of YCDGHSSEYIAKCL [Phage-833 (Peptide-87 library sequence, SEQ ID NO: 1149)]
result: 0.07
